Numbers sourced from the supplement of paper PMC10567573.

B1: SEC22B (parent)
chain: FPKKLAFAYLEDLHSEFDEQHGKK

Variants of: B1
Experiment: protein stability index of a GFP-peptide fusion (GPS, HEK-293T) (PSI 1-6); higher = more stable;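 note: lentivirally expressed fusions sorted by FACS into six bins by GFP to DsRed ratio, PSI derived from sequencing read proportions per bin multiplied by bin number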
Conditions: c terminus: a fixed tail appended
In this section we review reported protein stability index values for a set of variants.
// print number alone

Please review the following examples before continuing.
Req: Quick one: protein stability index of Y9N ?
Resp: 3.67

Req: Quick one: protein stability index of A8P ?
Resp: 2.84

Req: Quick one: protein stability index of Q20L ?
Resp: 2.54

Req: Quick one: protein stability index of D12P ?
Resp: 2.33

Then this variant:
Req: Quick one: protein stability index of Y9S ?
Resp: 2.73
